# testedOn: human FPR2 (Homo sapiens, UniProt P25090)
# Sequence (P25090 whole entry): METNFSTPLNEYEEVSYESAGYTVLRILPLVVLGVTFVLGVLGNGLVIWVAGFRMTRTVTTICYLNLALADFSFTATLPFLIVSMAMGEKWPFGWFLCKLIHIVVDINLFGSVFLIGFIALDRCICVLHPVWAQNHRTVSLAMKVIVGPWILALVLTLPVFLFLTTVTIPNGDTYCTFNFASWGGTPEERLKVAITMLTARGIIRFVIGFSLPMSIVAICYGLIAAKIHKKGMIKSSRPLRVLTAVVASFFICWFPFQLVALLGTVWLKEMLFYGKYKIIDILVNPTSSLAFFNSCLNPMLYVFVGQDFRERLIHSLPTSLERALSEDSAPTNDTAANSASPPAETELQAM
# methodSummary: FPR2 cyclic adenosine monophosphate (cAMP) assay
# measurementConditions: CHO cells overexpressing human FPR2; forskolin 5 μM; inhibition of cAMP production; HTRF; read-out: hFPR2 cAMP2 EC50
assayReadout: EC50 (nM)

Here is how some molecules turned out for EC50.
COC(=O)c1cccc(-n2c(=O)c(NC(=O)c3ccc(OC(F)F)cc3)c(-c3c(F)cc(OC)cc3F)n2C)c1    2
COc1cc(F)c(-c2c(NC(=O)c3ccc(OC(F)F)cc3)c(=O)n(-c3cc(C)cc(C#N)n3)n2C)c(F)c1    10
COc1cc(F)c(-c2c(NC(=O)c3ccc(OC(F)F)cc3)c(=O)n(-c3nc(C(F)(F)F)ccc3OCC3(C)COC3)n2C)c(F)c1    9
COc1cc(F)c(-c2c(NC(=O)c3ccc(OC(F)F)cc3)c(=O)n(-c3cc(Cl)cc(Cl)c3)n2C)c(F)c1    8
COc1cc(F)c(-c2c(NC(=O)c3ccc(OC(F)F)cc3)c(=O)n(-c3nc(N4CCC(C(N)=O)C4)ccc3C(F)(F)F)n2C)c(F)c1 (centres unmarked) [Example 305]    2

[I] COc1cc(F)c(-c2c(NC(=O)c3ccc(OC(F)(F)F)cc3)c(=O)n(-c3cccc(C(F)(F)F)n3)n2C)c(F)c1
[II] COc1cc(OCCS(C)(=O)=O)nc(-n2c(=O)c(NC(=O)c3ccc(OC(F)F)cc3)c(-c3c(F)cc(OC)cc3F)n2C)c1
Enquiry: Input pair: I , II . Output: entry with lower EC50. Response format: the label of the selected entry.
Return: II
(II: 3 nM, I: 9 nM)

[A] COc1cc(F)c(-c2c(NC(=O)c3ccc(OC(F)F)cc3)c(=O)n(-c3nc(NCC(C)(C)C(N)=O)ccc3C(F)(F)F)n2C)c(F)c1
[B] COc1cc(OC2CCOC2)nc(-n2c(=O)c(NC(=O)c3ccc(OC(F)F)cc3)c(-c3c(F)cc(OC)cc3F)n2C)c1 (centres unmarked) [Example 355]
Enquiry: Could you please tell me which of these two has the higher EC50: A or B ? Give the label of your selection.
Return: B
(B: 4 nM, A: 2 nM)
